Origin of the recorded values: patent US7919488B2

Measured Ki values are reported for all entries that follow.
- Subject Of Test: recombinant CYP3A4-b5 enzyme (Baculosomes®) (Homo sapiens)
- Construct: purchased Invitrogen (Carlsbad, Calif.)
- Sequence (P08684 whole entry): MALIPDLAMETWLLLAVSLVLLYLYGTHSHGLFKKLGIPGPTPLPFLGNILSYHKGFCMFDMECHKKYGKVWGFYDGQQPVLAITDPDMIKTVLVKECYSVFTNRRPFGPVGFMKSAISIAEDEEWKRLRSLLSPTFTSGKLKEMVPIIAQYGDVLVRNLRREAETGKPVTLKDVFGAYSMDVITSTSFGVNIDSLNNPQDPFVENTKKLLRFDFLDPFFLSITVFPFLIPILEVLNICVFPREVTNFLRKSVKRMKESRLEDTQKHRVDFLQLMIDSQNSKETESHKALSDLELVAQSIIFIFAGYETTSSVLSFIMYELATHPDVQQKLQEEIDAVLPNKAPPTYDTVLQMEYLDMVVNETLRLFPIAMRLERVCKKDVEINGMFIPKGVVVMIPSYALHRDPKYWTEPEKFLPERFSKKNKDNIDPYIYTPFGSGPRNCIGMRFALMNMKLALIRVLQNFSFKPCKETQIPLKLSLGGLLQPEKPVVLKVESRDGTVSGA
- Assay Remarks: Kiapp against recombinant CYP3A4 enzyme (Baculosomes), BFC substrate
- Type: biochemical
- Run Parameters: recombinant CYP3A4-b5 (Invitrogen), 5 uM BFC, 200 uM NADPH, pre-incubation at least 30 minutes, pH 7.0, room temperature
Please answer using the number first and the unit second.

These solved cases illustrate the format of a correct answer.
Compound	Value Measured
O=C(c1ncc[nH]1)N1CC(n2nc(-c3ccncc3)cc2Cc2ccc(F)cc2)C1	0.0772 µM
CS(=O)(=O)C1CCN(C(=O)Cn2nc(-c3ccncc3)cc2Cc2ccc(F)cc2)C1 (stereo not drawn)	0.0996 µM
Cc1cc(CNC(=O)Cn2nc(-c3ccncc3)cc2Cc2ccc(F)cc2)no1	0.0753 µM
NC(=O)c1noc(Cn2nc(-c3ccncc3)cc2Cc2ccc(F)cc2)n1	0.18 µM
Cc1noc(Cn2nc(-c3ccncc3)cc2Cc2ccc(F)cc2)n1	0.142 µM

Please examine the following record next.
Tested system recombinant CYP3A4-b5 enzyme (Baculosomes®) (Homo sapiens); Ki recorded for COC(=O)N[C@H]1CCN(C(=O)Cn2nc(-c3ccncc3)cc2Cc2ccc(F)cc2)C1 was 0.0276 µM

----------
- Subject Of Test: CYP3A4 (Homo sapiens, UniProt P08684)
- Construct: 0.1 mg/mL human liver microsomes; from tissue; host or cells: human liver microsomes
- Assay Remarks: IC50 against CYP3A4 by inhibition of midazolam metabolism in human liver microsomes
- Type: biochemical
- Run Parameters: 0.1 mg/mL human liver microsomes, 2 μM midazolam, 1 mM NADPH, 1-hydroxymidazolam production, eight minutes; read-out: IC50, μM (HLM, midazolam)
Threshold check on IC50: strictly below 0.02 µM is 1 (yes); on or above 0.02 µM is 0 (no).

Use the examples below as a reference point.
Compound	Class Assignment
CC(C)NC(=O)NC1CCN(C(=O)Cn2nc(-c3ccncc3)cc2Cc2ccc(F)cc2)CC1	1 (yes)
CC(=O)NC(C)(C)CNC(=O)Cn1nc(-c2ccncc2)cc1Cc1ccc(F)cc1	0 (no)
NC1CCN(C(=O)Cn2nc(-c3ccncc3)cc2Cc2ccc(F)cc2)CC1	0 (no)

**Query** IC50 strictly < 0.02 µM for this compound? O=C(c1ncccn1)N1CC(n2nc(-c3ccncc3)cc2Cc2ccc(F)cc2)C1
**Result** 0 (no)

**Query** Please state whether IC50 is below 0.02 µM for O=C(Cn1nc(-c2ccncc2)cc1Cc1ccc(F)cc1)N1CCN(c2ncccn2)CC1
**Result** 1 (yes)

**Query** Please check: IC50 for CN(C(=O)Cn1nc(-c2ccncc2)cc1Cc1ccc(F)cc1)[C@H]1CC[C@H](O)CC1 , strictly under 0.02 µM or not?
**Result** 1 (yes)

**Query** Please indicate whether the reported IC50 of O=C(Cn1nc(-c2ccncc2)cc1Cc1ccc(F)cc1)N1CC[C@@H](N2CCOCC2)C1 is strictly below 0.02 µM.
**Result** 0 (no)

**Query** Dear reviewer, please state whether O=C(Cn1nc(-c2ccncc2)cc1Cc1ccc(F)cc1)N[C@H]1CC[C@@H](O)CC1 has IC50 strictly beneath 0.02 µM.
**Result** 1 (yes)

**Query** Does the reported IC50 of O=C(Cn1nc(-c2ccncc2)cc1Cc1ccc(F)cc1)NCc1ncc(F)cn1 stay below 0.02 µM?
**Result** 0 (no)

**Query** In plain terms, does O=C(Cn1nc(-c2ccncc2)cc1Cc1ccc(F)cc1)N1CCC[C@@H]1CO come in under 0.02 µM for IC50?
**Result** 1 (yes)

**Query** Regarding Fc1ccc(Cc2cc(-c3ccncc3)n[nH]2)cc1 , kindly confirm whether its IC50 is beneath 0.02 µM.
**Result** 0 (no)

**Query** Find out if reported IC50 for CC(C)(CN1CCOCC1)NC(=O)Cn1nc(-c2c[nH]nn2)cc1Cc1ccc(F)cc1 is less than 0.02 µM
**Result** 0 (no)

**Query** I'd appreciate it if you could check whether CN(C(=O)Cn1nc(-c2ccncc2)cc1Cc1ccc(F)cc1)[C@H]1CC[C@@H](O)CC1 has IC50 smaller than 0.02 µM.
**Result** 1 (yes)

**Query** Quick check: IC50 of OCCCn1nc(-c2ccncc2)cc1Cc1ccc(F)cc1 under 0.02 µM?
**Result** 0 (no)

**Query** Threshold test, IC50 < 0.02 µM: CC(=O)NC1CN(C(=O)Cn2nc(-c3ccncc3)cc2Cc2ccc(F)cc2)C1
**Result** 0 (no)

**Query** Please state whether IC50 is below 0.02 µM for CS(=O)(=O)CCN1CCN(C(=O)Cn2nc(-c3ccncc3)cc2Cc2ccc(F)cc2)CC1
**Result** 1 (yes)

**Query** Dear reviewer, please state whether CC(Cc1cnccn1)NC(=O)Cn1nc(-c2ccncc2)cc1Cc1ccc(F)cc1 (stereo not shown) has IC50 strictly beneath 0.02 µM.
**Result** 0 (no)

**Query** Hi there! Is IC50 for O=C(Cn1nc(-c2ccncc2)cc1Cc1ccc(F)cc1)N1CCCC(N2CCOCC2)CC1 (stereo not shown) below 0.02 µM, do you know?
**Result** 0 (no)

**Query** A record lists CS(=O)(=O)NC1CN(C(=O)Cn2nc(-c3ccncc3)cc2Cc2ccc(F)cc2)C1 . Is its IC50 below 0.02 µM?
**Result** 0 (no)
